Recorded % binding @ 100 nM vWF by entry
- Tested on: full length human vWF (SEQ ID NO 7)
- Measurement protocol: dot blot KD determination and extent of binding, full length human vWF;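 also: dot blot binding of aptamers to full length human vWF across a protein titration, incubated 30 minutes at room temperature in 1x DPBS with BSA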
- Condition context: Phase 2 modification; extent of aptamer binding at 100 nM full length human vWF
Oligonucleotides are written 5' to 3', each unit as a sugar letter and its base; * is a phosphorothioate linkage, no mark a phosphodiester; rarer units and linkages stand in square brackets, end groups in braces. Plain capitals give the bases only. [invdT] = inverted (3'-3') thymidine; d = 2'-deoxy (DNA); m = 2'-O-methyl

Substance	% binding @ 100 nM vWF [%]
mGmGmCmGmUdG-s-dC-s-dAmGmUmGmCmCmUmUmCmGmGmC-s-dCmGTmGdC-s-dG-s-dGTmGmCdCmUdC-s-dCmGmUmCmAmCmGmCmC-3T (mGmGmCmGmUdG*dC*dAmGmUmGmCmCmUmUmCmGmGmC*dCmGdTmGdC*dG*dGdTmGmCdCmUdC*dCmGmUmCmAmCmGmCmC[invdT]) [ARC1344]	17
mGmGmCmGmUdGdCdAmGmUmGmCmCmUmUmCmGmGmCdCdGTdGdCdGdGTdGdCdCTdCdCdGTdCmAmCmGmCmC-3T (mGmGmCmGmUdGdCdAmGmUmGmCmCmUmUmCmGmGmCdCdGdTdGdCdGdGdTdGdCdCdTdCdCdGdTdCmAmCmGmCmC[invdT]; aptamer) [ARC1341]	26
